meta.source: PubChem BioAssay (NCI)

# System: OVCAR-4 ovarian
# PROTOCOL DESCRIPTION: NCI tumour cell line growth inhibition, 48 h
TGI: recorded values
VALUE TYPE: TGI (µM)

> print(dat)
                                   compound  value.type  comparison.symbol  measured.result
1  CC1CCN(CC(=O)N2c3ccccc3Sc3cc4ccccc4cc32)CC1         TGI                  >              100
2  C[C@]12CC[C@@H]3c4ccc(OC(=O)c5ccccc5)cc4CC[C@H]3[C@@H]1CC[C@@H]2Oc1c2ccccc2nc2ccccc12         TGI                  >               50
3  CCOc1cc(C2CC(c3ccc(NS(=O)(=O)c4cc([N+](=O)[O-])ccc4C)cc3)=NN2)ccc1O (stereo not given)         TGI                  =             71.4
4  COc1cc(S(C)(=O)=O)ccc1Nc1nc2ccc(-c3ccc(NC(=O)[C@H](C)c4ccc(F)cc4)cc3)cn2n1         TGI                  >              100
5     Cc1cc(C)n(CN(Cn2nc(C)cc2C)C2CCCCC2)n1         TGI                  =             67.9

###

GI50: recorded values
# Test system: K-562 leukemia
# PROTOCOL DESCRIPTION: NCI tumour cell line growth inhibition, 48 h

COMPOUND	GI50
Cc1cc(-c2nnc3n2CCCCC3)c(C)n1-c1ccc(Cl)c(Cl)c1	5.14 µM
CCN(CC)CCCC(C)Nc1c2ccc(C)cc2nc2ccc(OC)cc12 (configuration not stated)	2.92 µM
COc1cc2nc(-c3ccc(C(F)(F)F)cc3)cc(OCCCN3CCCCC3)c2cc1OC	0.578 µM
Cc1ccc(NC(=O)Cn2c(Br)nc3c2c(=O)n(C)c(=O)n3C)cc1	18.5 µM
O=C([CH-]C(=O)C(F)(F)F)c1ccccc1.O=C([CH-]C(=O)C(F)(F)F)c1ccccc1.O=C([CH-]C(=O)C(F)(F)F)c1ccccc1.O=C([CH-]C(=O)C(F)(F)F)c1ccccc1.[Eu+3].c1ccncc1	4.66 µM
CC(C)[C@H]1C(=O)N[C@@H](CCCN=C(N)N)C(=O)NCC(=O)N[C@@H](CC(=O)O)C(=O)N[C@H](Cc2ccccc2)C(=O)N1C	> 100 µM
COc1cc(S(C)(=O)=O)ccc1Nc1nc2ccc(-c3ccc(NC(=O)[C@H](C)c4ccc(F)cc4)cc3)cn2n1	> 78.7 µM

###

# Tested on: CCRF-CEM leukemia
# PROTOCOL DESCRIPTION: NCI tumour cell line growth inhibition, 48 h; in the data active = GI50 below about 0.43 µM; inactive = the rest
Labels: 1.0 for active, 0.0 for inactive

> print(dat)
                                   compound    subject.of.test  discrete.label
1  CSc1ccc(/C=C2\C=C(CC(=O)NCc3ccc(C(=O)c4ccccc4)cc3)c3cc(F)ccc32)cc1  CCRF-CEM leukemia             1.0
2  COC(=O)CCC1=C(C)/C(=C/c2[nH]c(-c3ccc[nH]3)cc2OC)N=C1C  CCRF-CEM leukemia             1.0
3  NC(=O)c1ccc(C2C3=C(CCCC3=O)OC3=C2C(=O)c2ccccc2C3=O)cc1 (stereo not given)  CCRF-CEM leukemia             1.0
4        O=[N+]([O-])c1ccc2c(c1)[O][Sn][O]2  CCRF-CEM leukemia             0.0
5  CC(=O)Nc1ccc(S(=O)(=O)NNC(=O)c2cccnc2Nc2ccc(Cl)cc2)cc1  CCRF-CEM leukemia             0.0
